protocol.notes: ATG_TAL_CIS: Attagene CIS-FACTORIAL HepG2 Assay for human TAL Basal Promoter (AID 2282966);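 further: background control endpoint measuring basal TAL promoter reporter mRNA not a specific factor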
assay.conditions: HepG2 Attagene cis-factorial TAL promoter reporter; actives raise or lower the signal
Active and inactive are the calls of the source. How the source made its calls: active means hit-call score of the fitted dose curve at least 0.9, where 1 is the maximum; inactive means score below 0.9.
Possible outcomes: 1.0 = active, 0.0 = inactive

[[record]]
compound = "C=CCOC(=O)c1ccccc1C(=O)OCC=C"
label = 0.0

[[record]]
compound = "C1CCC(SSC2CCCCC2)CC1"
label = 0.0

[[record]]
compound = "O=c1c(O)c(-c2ccc(O)c(O)c2)oc2cc(O)cc(O)c12"
label = 0.0

[[record]]
compound = "COCCOCCOC"
label = 0.0

[[record]]
compound = "Cc1cccc(Nc2cc(Cl)nc(SCC(=O)O)n2)c1C"
label = 0.0

[[record]]
compound = "COc1cc(S(=O)(=O)O)c(C)cc1N=Nc1c(O)ccc2cc(S(=O)(=O)O)ccc12"
label = 0.0

[[record]]
compound = "Cc1ccc(C(C)C)c(O)c1"
label = 0.0

[[record]]
compound = "CCCCCCCCCCC"
label = 0.0

[[record]]
compound = "O=C(O)Cc1ccccc1Nc1c(Cl)cccc1Cl"
label = 0.0

[[record]]
compound = "CC(C)(C)c1cc(O)c(C(C)(C)C)cc1O"
label = 0.0

[[record]]
compound = "CC(=O)Oc1ccccc1C(=O)O"
label = 0.0

[[record]]
compound = "CNC(=O)[C@H]1O[C@@H](n2cnc3c(NCc4cc(Cl)ccc4OCc4cc(C)no4)ncnc32)[C@H](O)[C@@H]1N"
label = 0.0

[[record]]
compound = "CCc1c(C(=O)NN2CCCCC2)nn(-c2ccc(Cl)cc2Cl)c1-c1ccc(Br)cc1"
label = 0.0

[[record]]
compound = "Oc1ccc2c(c1)OC[C@@H](N1CCC(O)(c3ccc(F)cc3)CC1)[C@H]2O"
label = 0.0

[[record]]
compound = "CNCc1cc(F)ccc1Oc1ccc(Cl)c(Cl)c1"
label = 0.0

[[record]]
compound = "NS(=O)(=O)c1cc2c(cc1Cl)NCNS2(=O)=O"
label = 0.0

[[record]]
compound = "Cc1ccc(C)c(O)c1C"
label = 0.0

[[record]]
compound = "CCCCC(CC)COC(=O)CC(C(=O)OCC(CC)CCCC)S(=O)(=O)O (configuration not stated)"
label = 0.0

[[record]]
compound = "CCCCCCCCCCCCCCCC"
label = 0.0

[[record]]
compound = "CC1(C)NC(=O)NC1=O"
label = 0.0

[[record]]
compound = "CCOC(=O)CCC(=O)OCC"
label = 0.0

[[record]]
compound = "NCC1(Cc2noc(=O)[nH]2)CCCCC1"
label = 0.0

[[record]]
compound = "O=C(O)CCCCC(=O)O"
label = 0.0

[[record]]
compound = "CCNc1cccc(C)c1"
label = 0.0

[[record]]
compound = "COc1ccc(C)cc1N"
label = 0.0

[[record]]
compound = "Clc1cc(Cl)c(Cl)cc1Cl"
label = 0.0

[[record]]
compound = "CC1(C)CC(N=C=O)CC(C)(CN=C=O)C1 (configuration not stated)"
label = 0.0

[[record]]
compound = "FC(F)(F)C(F)(F)C(F)(F)C(F)(F)C(F)(F)C(F)(F)CCI"
label = 0.0

[[record]]
compound = "C[C@]12C=CC(=O)C=C1CC[C@@H]1[C@@H]2C(=O)C[C@@]2(C)[C@H]1CC[C@]2(O)C(=O)CO"
label = 0.0

[[record]]
compound = "CCCCc1ccc2c(n1)[C@@H](c1ccc(OC)cc1C[C@H](C)C(=O)O)[C@H](C(=O)O)[C@H]2c1ccc2c(c1)OCO2"
label = 0.0

[[record]]
compound = "Nc1ccc2c(c1)C(=O)c1ccccc1C2=O"
label = 0.0

[[record]]
compound = "COc1cc(/C=C/C(=O)CC(=O)/C=C/c2ccc(O)c(OC)c2)ccc1O"
label = 0.0

[[record]]
compound = "COc1ccc2c(c1)c(CC(=O)O)c(C)n2C(=O)c1ccc(Cl)cc1"
label = 0.0

[[record]]
compound = "Cc1cc(=O)[nH]c(=S)[nH]1"
label = 0.0

[[record]]
compound = "COc1cccc2c1C(=O)c1c(O)c3c(c(O)c1C2=O)C[C@@](O)(C(=O)CO)C[C@@H]3O[C@H]1C[C@H](N)[C@H](O)[C@H](C)O1"
label = 0.0

[[record]]
compound = "CC=Cc1ccc(O)c(OC)c1"
label = 0.0

[[record]]
compound = "CCOC(=O)C(C)(C)Oc1ccc(Cl)cc1"
label = 0.0

[[record]]
compound = "CCCCCCC(=O)OCC"
label = 0.0

[[record]]
compound = "COc1ccc(S(=O)(=O)N2C(=O)[C@@](c3ccccc3OC)(N3C[C@H](O)C[C@H]3C(=O)N(C)C)c3cc(Cl)ccc32)c(OC)c1"
label = 1.0

[[record]]
compound = "CCCCCC(=O)O"
label = 0.0

[[record]]
compound = "Cc1ccc(Cl)cc1"
label = 0.0

[[record]]
compound = "Cc1ccc(C)c(C)c1"
label = 0.0

